experimental target: PolQ ATPase enzyme (1-894) (Homo sapiens (Human), UniProt O75417)
Sequence (O75417 1-894): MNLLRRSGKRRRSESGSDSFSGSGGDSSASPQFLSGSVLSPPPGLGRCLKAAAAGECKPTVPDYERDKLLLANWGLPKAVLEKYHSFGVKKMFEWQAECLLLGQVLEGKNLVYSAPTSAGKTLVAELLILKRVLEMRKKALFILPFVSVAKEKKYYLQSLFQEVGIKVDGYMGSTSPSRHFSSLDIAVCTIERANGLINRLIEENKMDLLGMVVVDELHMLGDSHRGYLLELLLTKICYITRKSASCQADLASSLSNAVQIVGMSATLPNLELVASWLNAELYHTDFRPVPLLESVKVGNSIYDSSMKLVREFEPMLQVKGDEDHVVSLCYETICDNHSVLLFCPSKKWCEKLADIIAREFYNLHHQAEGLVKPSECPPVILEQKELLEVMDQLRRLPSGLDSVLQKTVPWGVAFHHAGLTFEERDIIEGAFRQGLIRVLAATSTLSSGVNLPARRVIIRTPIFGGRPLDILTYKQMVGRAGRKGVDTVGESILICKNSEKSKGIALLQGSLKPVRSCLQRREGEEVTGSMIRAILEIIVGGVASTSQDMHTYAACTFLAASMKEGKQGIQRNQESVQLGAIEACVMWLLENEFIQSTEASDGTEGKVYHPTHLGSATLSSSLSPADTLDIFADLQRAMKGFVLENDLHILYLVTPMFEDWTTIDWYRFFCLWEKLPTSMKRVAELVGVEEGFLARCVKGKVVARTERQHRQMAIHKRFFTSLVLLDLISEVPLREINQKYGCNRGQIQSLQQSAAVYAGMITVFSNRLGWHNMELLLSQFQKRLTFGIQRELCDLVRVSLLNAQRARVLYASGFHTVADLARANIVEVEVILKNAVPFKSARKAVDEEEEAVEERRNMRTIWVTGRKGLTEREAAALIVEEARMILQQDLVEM
experiment summary: Polθ ATPase enzymatic assay (0.5 nM enzyme concentration), ADP-Glo
Assay type: biochemical
measurement setup: average IC50; 0.5 nM PolQ ATPase enzyme (1-894)
IC50 reference
property name: IC50

> print(dat)
                                   compound                       experimental.target  data.value
1  COc1cnc(C(F)F)cc1-c1cc(CC#N)ncc1C(=O)Nc1nnc(C#Cc2ccc(Cl)cc2)s1  PolQ ATPase enzyme (1-894) (Homo sapiens (Human), UniProt O75417)   < 0.25 nM
2  COc1cnc(C(F)F)cc1-c1cc(C#Cc2cnn(C)c2)ncc1C(=O)Nc1nnc(C#CC2CC2)s1  PolQ ATPase enzyme (1-894) (Homo sapiens (Human), UniProt O75417)   < 0.25 nM
3  COc1cnc(Cl)cc1-c1cn(CC(N)=O)c(=O)cc1C(=O)Nc1nnc(C#CC2CC23CC3)s1 (stereo not drawn)  PolQ ATPase enzyme (1-894) (Homo sapiens (Human), UniProt O75417)   < 0.25 nM

====

experimental target: PolQ ATPase enzyme (1-894) (Homo sapiens (Human), UniProt O75417)
experiment summary: Polθ ATPase enzymatic assay (0.5 nM enzyme concentration), ADP-Glo
Type: biochemical
measurement setup: average IC50; 0.5 nM PolQ ATPase enzyme (1-894)
Protocol: PolQ ATPase enzyme (1-894) at 0.5 nM is incubated with a 10-point concentration response of inhibitors for 15 min at rt in the following buffer: 50 mM Tris Cl pH 7.5, 10% glycerol, 5 mM DTT, 10 mM MgCl2, 0.1 mg/ml BSA. […] Enzymatic reaction proceeds at rt for 180 min ATP consumption is measured using the ADP-Glo assay from Promega. Luminescence is read on the Envision and IC50 are determined using the variable slope 4-parameters equation. […]
property name: log10 IC50 (log10 of the value in nM)

> print(dat)
                                   compound                       experimental.target  data.value
1  COc1ccc(C(F)(F)F)cc1-c1cc(C2CCN(C)C2=O)ncc1C(=O)Nc1nnc(C#CC2CC2)s1 (centres unmarked)  PolQ ATPase enzyme (1-894) (Homo sapiens (Human), UniProt O75417)       -0.16
2  COc1cnc(Cl)cc1-c1cn2c(C#N)cnc2cc1C(=O)Nc1nnc(C#CC2CC2)s1  PolQ ATPase enzyme (1-894) (Homo sapiens (Human), UniProt O75417)        0.51
3  C#CC1CC1c1nnc(NC(=O)c2ccc(N3CCOCC3=O)cc2-c2cc(C(F)F)ncc2OC)s1 (centres unmarked) [Compound 396]  PolQ ATPase enzyme (1-894) (Homo sapiens (Human), UniProt O75417)        1.00
4  COc1cnc(C(F)F)cc1-c1cc(N2CCCC2=O)ncc1C(=O)Nc1ncc(C#CC2CC2)s1  PolQ ATPase enzyme (1-894) (Homo sapiens (Human), UniProt O75417)        1.18
5  COc1cnc(C(F)F)cc1-c1cc(N2CCN(C(C)=O)CC2)ccc1C(=O)Nc1nnc(C#CC2CC2)s1  PolQ ATPase enzyme (1-894) (Homo sapiens (Human), UniProt O75417)        0.48
6  COc1cnc(C(F)F)cc1-c1cn(C)c(=O)cc1C(=O)Nc1nnc(C#CC2CC23CC3)s1 (centres unmarked)  PolQ ATPase enzyme (1-894) (Homo sapiens (Human), UniProt O75417)       -0.12
7  COc1cnc(C(F)F)cc1-c1cnccc1C(=O)Nc1nnc([C@H]2C[C@@H]2c2ccc(C#N)cc2)s1  PolQ ATPase enzyme (1-894) (Homo sapiens (Human), UniProt O75417)        0.49

====

experimental target: PolQ ATPase enzyme (1-894) (Homo sapiens (Human), UniProt O75417)
experiment summary: Polθ ATPase enzymatic assay (0.5 nM enzyme concentration), ADP-Glo
Assay type: biochemical
measurement setup: average IC50; 0.5 nM PolQ ATPase enzyme (1-894)
property name: IC50

> print(dat)
                                   compound                       experimental.target  data.value
1  COc1cnc(C(F)F)cc1-c1cc(CC(=O)N2CC(F)(F)C2)ccc1C(=O)Nc1nnc(C#CC2CC2)s1 [Compound 195]  PolQ ATPase enzyme (1-894) (Homo sapiens (Human), UniProt O75417)   < 0.25 nM
2  COc1cnc(C(F)F)cc1-c1cc(N2CCN(C(=O)OC(C)C)CC2=O)ncc1C(=O)Nc1nnc(C#CC2CC2)s1 [Compound 382]  PolQ ATPase enzyme (1-894) (Homo sapiens (Human), UniProt O75417)   < 0.25 nM
3  COc1cnc(C(F)F)cc1-c1cc(-n2cc(F)ccc2=O)ncc1C(=O)Nc1nnc(C#CC2CC2)s1 [Compound 413]  PolQ ATPase enzyme (1-894) (Homo sapiens (Human), UniProt O75417)   < 0.25 nM

====

experimental target: PolQ ATPase enzyme (1-894) (Homo sapiens (Human), UniProt O75417)
experiment summary: Polθ ATPase enzymatic assay (0.5 nM enzyme concentration), ADP-Glo
Assay type: biochemical
measurement setup: average IC50; 0.5 nM PolQ ATPase enzyme (1-894)
IC50 reference
property name: IC50 (nM)

> print(dat)
                             chemical.smiles  readout.qualifier  data.value
 1  COc1cnc(C(F)F)cc1-c1cc(-c2nnc(C)s2)ccc1C(=O)Nc1nnc(C#CC2CC2)s1                  <        0.25
 2  COC(=O)N1CCN(c2cc(-c3cc(C(F)F)ncc3OC)c(C(=O)Nc3nnc(C#CC4CC4)s3)cn2)C(=O)C1                  <        0.25
 3  COc1cnc(C(F)F)cc1-c1cc(N2CCOC3(CC3)C2=O)ncc1C(=O)Nc1nnc(C#CC2CC2)s1                  <        0.25
 4  COc1cnc(Cl)nc1-c1cc(-c2nnc(C)o2)ccc1C(=O)Nc1nnc(C#CC2CC2)s1                  =        0.88
 5  COc1cnc(C(F)F)cc1-c1cc(-c2nccn2C)ncc1C(=O)Nc1nnc(C#CC2CC2)s1                  <        0.25
 6  COc1cnc(C(F)F)cc1-c1cc(N2CCCCC2=O)ncc1C(=O)Nc1nnc(C#CC2CC2)s1                  =        0.33
 7  COc1ccc(C(F)F)cc1-c1cn2cc(C(=O)N(C)C)nc2cc1C(=O)Nc1nnc(C#CC2CC2)s1                  =         0.4
 8  COc1cnc(Cl)cc1-c1cn(Cc2nccs2)c(=O)cc1C(=O)Nc1nnc(C#CC2CC2)s1                  =         3.8
 9  COc1cnc(C(F)F)cc1-c1cc(-n2ncc(C)cc2=O)ncc1C(=O)Nc1nnc(C#CC2CC2)s1                  <        0.25
10  COc1cnc(Cl)cc1-c1cc(N(C)C(C)=O)ccc1C(=O)Nc1nnc(C#CC2CC2)s1                  =        0.29
11  COc1cnc(C(F)F)cc1-c1cc(Cc2nnc(C)o2)ncc1C(=O)Nc1ncc(C#CC2CC2)s1                  <        0.25

====

experimental target: PolQ ATPase enzyme (1-894) (Homo sapiens (Human), UniProt O75417)
experiment summary: Polθ ATPase enzymatic assay (0.5 nM enzyme concentration), ADP-Glo
Type: biochemical
measurement setup: average IC50; 0.5 nM PolQ ATPase enzyme (1-894)
Lab note: cut-off is 1 nM. Strictly less in IC50 is fulfilled. Exactly 1 nM or more is not fulfilled.

molecule	classification
COc1cnc(Cl)cc1-c1cc(C#N)ccc1C(=O)Nc1nnc(C#CC2CC2)s1 [Compound 40]	fulfilled
CNC(=O)Cn1cc(-c2cc(C(F)(F)F)ccc2OC)c(C(=O)Nc2nnc(C#Cc3cc(C)[nH]n3)s2)cc1=O [Compound 82]	fulfilled
[2H]C([2H])([2H])N(C(=O)C1CC(C)(O)C1)c1ccc(C(=O)Nc2nnc(C#CC3CC3)s2)c(-c2cc(C(F)F)ncc2OC)c1 (stereo not shown) [Compound 224]	fulfilled
COc1cnc(C(F)F)cc1-c1cn2cc(C(=O)N(C)C)nc2cc1C(=O)Nc1nnc(C#CC2CC2)s1 [Compound 315]	not fulfilled
COc1cnc(C(F)F)cc1-c1cc(-c2ccn(C)n2)ncc1C(=O)Nc1ncc(C#CC2CC2)s1 [Compound 117]	not fulfilled
COc1ccc(C(F)(F)F)cc1-c1cnccc1C(=O)Nc1nnc(C#CC2CC2)s1 [Compound 24]	fulfilled
COc1cnc(C(F)F)cc1-c1cc(N2CCOCC2=O)ncc1C(=O)Nc1nnc(C#CC2CC2)s1 [Compound 110]	fulfilled
COc1cnc(C(F)F)cc1-c1cc(C#Cc2cn[nH]c2)ncc1C(=O)Nc1nnc(C#CC2CC2)s1 [Compound 196]	fulfilled
COc1cnc(C(F)F)cc1-c1cc(-c2ccn(C)n2)ncc1C(=O)Nc1nnc(C#Cc2cc(C)[nH]n2)s1 [Compound 161]	fulfilled
